These data points were gathered from patent US20250114369A1.

- procedure_details: in vitro
- Format: in vitro ADME
- condition_details: human, s9, pH 7.4
Define the label as YES when half-life at 2 μM is strictly less than 5 min and as NO in all remaining cases.

CC(=O)O[C@H]1[C@@H](OC(C)=O)[C@](C#N)(c2ccc3c(N)ncnn23)O[C@@H]1COC(=O)NC(C)C | YES
N#C[C@@]1(c2ccc3c(N)ncnn23)O[C@H](COC(=O)n2cc(C(=O)OC3CCOCC3)c3ccccc32)[C@@H](O)[C@H]1O | NO
N#C[C@@]1(c2ccc3c(N)ncnn23)O[C@H](COC(=O)N2CCCCC2)[C@@H](O)[C@H]1O | NO

Item `N#C[C@@]1(c2ccc3c(N)ncnn23)O[C@H](COC(=O)N2C(=O)OC[C@@H]2Cc2ccccc2)[C@@H](O)[C@H]1O` : half-life at 2 μM beneath 5 min, strictly?
NO

Item `CCOC(=O)c1cccn1C(=O)OC[C@H]1O[C@@](C#N)(c2ccc3c(N)ncnn23)[C@H](OC(C)=O)[C@@H]1OC(C)=O` : half-life at 2 μM beneath 5 min, strictly?
YES

Item `CC(C)OC(=O)[C@@H](NC(=O)OC[C@H]1O[C@@](C#N)(c2ccc3c(N)ncnn23)[C@H](O)[C@@H]1O)C(C)C` : half-life at 2 μM beneath 5 min, strictly?
NO

Item `COC(=O)[C@H]1COC(=O)N1C(=O)OC[C@H]1O[C@@](C#N)(c2ccc3c(N)ncnn23)[C@H](O)[C@@H]1O` : half-life at 2 μM beneath 5 min, strictly?
NO

Item `CCCSC(=O)OC[C@H]1O[C@@](C#N)(c2ccc3c(N)ncnn23)[C@H](OC(C)=O)[C@@H]1OC(C)=O` : half-life at 2 μM beneath 5 min, strictly?
YES

Item `CCOC(=O)c1cccn1C(=O)OC[C@H]1O[C@@](C#N)(c2ccc3c(N)ncnn23)[C@H](O)[C@@H]1O` : half-life at 2 μM beneath 5 min, strictly?
YES
